Test system: TGF-β1 mediated alpha-SMA expression in primary human bronchial fibroblasts derived from IPF patients
runDescription: Fibroblast to Myofibroblast Transformation (FMT) assay
statedConditions: donor IPF05
Here the recorded Max PIN (%) is given for each entry.
Give just the numeric value; % need not be written.

Study these solved cases before continuing.
[[record]]
compound = "COC(=O)c1ccc2c(c1)NC(=O)/C2=C(\\Nc1ccc(N(C)C(=O)CN2CCN(C)CC2)cc1)c1ccccc1 [Nintedanib, reference compound]"
experimentalvalue = 92.1

[[record]]
compound = "Cc1cccc2c(Nc3ccnc(Nc4ccc(N5CCOCC5)cc4)n3)cnnc12"
experimentalvalue = 106.4

[[record]]
compound = "Cc1cccc(-c2nn3c(c2-c2ccnc4ccc(C(N)=O)cc24)CCC3)n1 [Galunisertib, reference compound]"
experimentalvalue = 100.8


Problem: Recorded Max PIN (%) of Cc1cccc2c(Nc3ccnc(Nc4cccc(N5CCOCC5)c4)n3)cnnc12 , please.
Solution: 107.2

Problem: Recorded Max PIN (%) of Cc1cccc(-c2[nH]c(CNc3ccccc3F)nc2-c2ccc3ncnn3c2)n1 [Vactosertib, reference compound] , please.
Solution: 32.7

* * *

Entries with their measured IC50, system ALK-5 (Homo sapiens (Human)):

Study these solved cases before continuing.
[[record]]
smilesstr = "c1cc(Nc2nccc(Nc3cnnc4c(C5CC5)cccc34)n2)cc(N2CCOCC2)c1"
experimentalvalue = "< 10 nM"

[[record]]
smilesstr = "Cc1cccc2c(Nc3ccnc(Nc4ccc(N5CCN(CC(F)(F)F)CC5)cc4)n3)cnnc12"
experimentalvalue = "< 10 nM"

[[record]]
smilesstr = "Cc1ccc(F)c2c(Nc3ccnc(Nc4ccc(N5CCN(C)CC5)cc4)n3)cnnc12"
experimentalvalue = "< 10 nM"

[[record]]
smilesstr = "Cc1c(F)ccc2c(Nc3ccnc(Nc4ccc(N5CCNCC5)cc4)n3)cnnc12"
experimentalvalue = "< 10 nM"


Let us move to another entry and its IC50.
Problem: Request: IC50, test system ALK-5 (Homo sapiens (Human)), entry Cc1cccc2c(Nc3ccnc(Nc4ccc(F)c(N5CCOCC5)c4)n3)cnnc12
Solution: 10 to 100 nM

* * *

Here the recorded Max PIN (%) is given for each entry.
Tested on: TGF-β1 mediated alpha-SMA expression in primary human bronchial fibroblasts derived from IPF patients
runDescription: Fibroblast to Myofibroblast Transformation (FMT) assay
statedConditions: donor IPF06
Give just the numeric value; % need not be written.

[[record]]
compound = "Cc1cccc2c(Nc3ccnc(Nc4ccc(N5CCOCC5)cc4)n3)cnnc12"
experimentalvalue = 110.3

[[record]]
compound = "Cc1cccc(-c2[nH]c(CNc3ccccc3F)nc2-c2ccc3ncnn3c2)n1 [Vactosertib, reference compound]"
experimentalvalue = 112.1

[[record]]
compound = "Cc1cccc2c(Nc3ccnc(Nc4cccc(N5CCOCC5)c4)n3)cnnc12"
experimentalvalue = 112.9

[[record]]
compound = "COC(=O)c1ccc2c(c1)NC(=O)/C2=C(\\Nc1ccc(N(C)C(=O)CN2CCN(C)CC2)cc1)c1ccccc1 [Nintedanib, reference compound]"
experimentalvalue = 86.8


Problem: Recorded Max PIN (%) of Cc1cccc(-c2nn3c(c2-c2ccnc4ccc(C(N)=O)cc24)CCC3)n1 [Galunisertib, reference compound] , please.
Solution: 104.4

* * *

Tested on: TGF-β1 mediated alpha-SMA expression in primary human bronchial fibroblasts derived from IPF patients
runDescription: Fibroblast to Myofibroblast Transformation (FMT) assay
statedConditions: donor IPF05
Here the recorded LogM IC50 αSMA is given for each entry.
Give just the numeric value; LogM need not be written.

[[record]]
compound = "Cc1cccc(-c2nn3c(c2-c2ccnc4ccc(C(N)=O)cc24)CCC3)n1 [Galunisertib, reference compound]"
experimentalvalue = "−5.7"

[[record]]
compound = "COC(=O)c1ccc2c(c1)NC(=O)/C2=C(\\Nc1ccc(N(C)C(=O)CN2CCN(C)CC2)cc1)c1ccccc1 [Nintedanib, reference compound]"
experimentalvalue = "−6.5"

[[record]]
compound = "Cc1cccc2c(Nc3ccnc(Nc4cccc(N5CCOCC5)c4)n3)cnnc12"
experimentalvalue = "−7.2"

[[record]]
compound = "Cc1cccc2c(Nc3ccnc(Nc4ccc(N5CCOCC5)cc4)n3)cnnc12"
experimentalvalue = "−6.8"


Let us move to another entry and its LogM IC50 αSMA.
Problem: Recorded LogM IC50 αSMA of Cc1cccc(-c2[nH]c(CNc3ccccc3F)nc2-c2ccc3ncnn3c2)n1 [Vactosertib, reference compound] , please.
Solution: −7.4

* * *

tgt: ALK-5 (Homo sapiens (Human), UniProt P36897)
Sequence (P36897 34-503): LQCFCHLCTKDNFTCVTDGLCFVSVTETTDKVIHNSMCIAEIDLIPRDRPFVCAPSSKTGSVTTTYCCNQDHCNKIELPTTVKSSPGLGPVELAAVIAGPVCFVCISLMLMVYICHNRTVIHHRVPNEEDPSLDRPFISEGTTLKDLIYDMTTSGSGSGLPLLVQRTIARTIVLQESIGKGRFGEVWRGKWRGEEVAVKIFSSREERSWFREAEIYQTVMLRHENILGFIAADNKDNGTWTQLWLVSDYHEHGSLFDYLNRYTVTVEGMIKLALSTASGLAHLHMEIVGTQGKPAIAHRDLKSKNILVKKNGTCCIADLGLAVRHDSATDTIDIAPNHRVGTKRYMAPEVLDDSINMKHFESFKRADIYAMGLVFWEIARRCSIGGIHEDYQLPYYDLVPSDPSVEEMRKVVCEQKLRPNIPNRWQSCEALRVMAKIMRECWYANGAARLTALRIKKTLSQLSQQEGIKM
runDescription: LanthaScreen Eu Kinase Binding Assay, ALK-5
Method: Activity determinations and selectivity were conducted by Thermo Fisher Scientific “SelectScreen™ Biochemical Kinase Profiling Service” using their “LanthaScreen™ Eu Kinase Binding Assay Screening” (www.thermofisher.com/selectscreen). Binding of an Alexa Fluor™ conjugate or “tracer” to a kinase is detected by addition of a Eu-labeled anti-tag antibody. […] This assay is carried out by mixing the compound tested with the reagents and reading, no development step is required. […]
measuredParameter: Kinase Selectivity: ALK2 IC50/ ALK5 IC50

[[record]]
smilesstr = "Cc1cccc2c(Nc3ccnc(Nc4cccc(CN5CCNCC5)c4)n3)cnnc12"
tgt = "ALK-5 (Homo sapiens (Human), UniProt P36897)"
experimentalvalue = "(+) (≤10=[+])"

[[record]]
smilesstr = "Cc1cccc2c(Nc3ccnc(Nc4cccc(C5CCNCC5)c4)n3)cnnc12"
tgt = "ALK-5 (Homo sapiens (Human), UniProt P36897)"
experimentalvalue = "(+) (≤10=[+])"


* * *

Test system: phospho-SMAD2 (Ser 465/467) in A549 xenograft
runDescription: A549 xenograft study, tumor phospho SMAD2
Format: in vivo, mouse
statedConditions: Mus musculus, A549; 100 mg/Kg, oral gavage, 3 hours after administration; read-out: Percent of p-SMAD2 inhibition compared to vehicle control
Here the recorded inhibition at 100 mg/kg is given for each entry.
Give just the numeric value; % need not be written.

Study these solved cases before continuing.
[[record]]
compound = "Cc1cccc2c(Nc3ccnc(Nc4cccc(N5CCOCC5)c4)n3)cnnc12 [EX-11]"
experimentalvalue = 90.1

[[record]]
compound = "Cc1cccc2c(Nc3ccnc(Nc4ccc(N5CCOCC5)c(Cl)c4)n3)cnnc12 [EX-12]"
experimentalvalue = 55.5

[[record]]
compound = "Cc1cccc2c(Nc3ccnc(Nc4ccc(N5CCOCC5)c(F)c4)n3)cnnc12 [EX-13]"
experimentalvalue = 75.7


Problem: Recorded inhibition at 100 mg/kg of Cc1cccc2c(Nc3ccnc(Nc4ccc(N5CCOCC5)cc4)n3)cnnc12 [EX-10] , please.
Solution: 84.8
